system: A2780 cells; assay: Proliferation assay, A2780 (Cell Titre-Glo); assay type: cell-based; conditions: Homo sapiens; A2780, 72-hour exposure; read-out: Inhibition of A2780 cell proliferation IC50
assay.endpoint: IC50 (nM)

# annotated cases, reported IC50 shown
{"columns": ["compound", "assay.endpoint", "recorded.measurement"],
 "data": [
  ["CC1CCCNc2cc(ccc2F)-c2nc(ncc2F)Nc2cc(CS(C)(=O)=O)cc(c2)O1 (racemic)", "IC50", 7.7],
  ["CS(=N)(=O)Cc1cc2cc(c1)OCCCCNc1cc(ccc1F)-c1nc(ncc1F)N2 (racemic)", "IC50", 1.2],
  ["CC(C)(C)OC(=O)N=S(C)(=O)Cc1cc2cc(c1)OCCCCNc1cc(ccc1F)-c1nc(ncc1F)N2 (racemic)", "IC50", 13],
  ["CSCc1cc2cc(c1)OC(C)CCCNc1cc(ccc1F)-c1nc(ncc1F)N2 (racemic)", "IC50", 71],
  ["CS(=N)(=O)Cc1cc2nc(c1)OCCCCNc1cc(ccc1F)-c1cc(ncc1F)N2 (racemic)", "IC50", 6.7]
]}

I: CS(=N)(=O)Cc1cc2cc(c1)OCCCCCNc1cc(ccc1F)-c1nc(ncc1F)N2 (racemic)
II: CS(=N)(=O)Cc1cc2cc(c1)OCCCNc1cc(ccc1F)-c1nc(ncc1F)N2 (racemic)
Between I and II , whose recorded IC50 is greater? Mark your answer with the label of the selected entry.
II

====

tested on: DU145 cells; experiment: Proliferation assay, DU145 (crystal violet); format: cell-based; details: Homo sapiens, DU-145, 96 h; DU145, 4 days; read-out: Inhibition of DU145 cell proliferation IC50
assay.endpoint: IC50 (nM)

{"columns": ["compound", "IC50, nM"],
 "data": [
  ["CS(=N)(=O)Cc1cc2cc(c1)OCCCCNc1cc(ccc1F)-c1nc(ncc1F)N2 (racemic) [Example 2]", 4.5]
]}

1: CS(=N)(=O)Cc1cc2cc(c1)OCCCNc1cc(ccc1F)-c1nc(ncc1F)N2 (racemic) [Example 3]
2: CC(C)(C)OC(=O)N=S(C)(=O)Cc1cc2cc(c1)OCCCCNc1cc(ccc1F)-c1nc(ncc1F)N2 (racemic) [Example 1]
Would you mind telling me which has the lower recorded IC50 between 1 and 2 ? API: response body contains the label of the selected item.
1

====

biological target: CDK9/CycT1 (Homo sapiens); construct: Recombinant full-length His-tagged human CDK9 and CycT1; His; purchased Life Technologies PV4131; host or cells: insect cells; test: CDK9/CycT1 high ATP kinase assay (TR-FRET); type: biochemical; settings: 2 mM ATP; minimal values where CDK9 IC50 is at the assay limit of about 1-2 nM
Sequence (P50750 whole entry): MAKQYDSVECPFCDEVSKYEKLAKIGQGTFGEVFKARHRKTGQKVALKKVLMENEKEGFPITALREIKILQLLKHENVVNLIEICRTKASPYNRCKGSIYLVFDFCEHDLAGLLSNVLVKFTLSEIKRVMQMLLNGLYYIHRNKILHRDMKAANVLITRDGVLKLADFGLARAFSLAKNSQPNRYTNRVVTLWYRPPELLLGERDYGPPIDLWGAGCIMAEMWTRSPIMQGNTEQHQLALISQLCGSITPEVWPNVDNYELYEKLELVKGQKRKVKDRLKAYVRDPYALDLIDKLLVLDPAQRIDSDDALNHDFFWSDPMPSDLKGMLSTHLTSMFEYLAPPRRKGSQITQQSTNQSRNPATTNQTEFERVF
Sequence (O60563 whole entry partner): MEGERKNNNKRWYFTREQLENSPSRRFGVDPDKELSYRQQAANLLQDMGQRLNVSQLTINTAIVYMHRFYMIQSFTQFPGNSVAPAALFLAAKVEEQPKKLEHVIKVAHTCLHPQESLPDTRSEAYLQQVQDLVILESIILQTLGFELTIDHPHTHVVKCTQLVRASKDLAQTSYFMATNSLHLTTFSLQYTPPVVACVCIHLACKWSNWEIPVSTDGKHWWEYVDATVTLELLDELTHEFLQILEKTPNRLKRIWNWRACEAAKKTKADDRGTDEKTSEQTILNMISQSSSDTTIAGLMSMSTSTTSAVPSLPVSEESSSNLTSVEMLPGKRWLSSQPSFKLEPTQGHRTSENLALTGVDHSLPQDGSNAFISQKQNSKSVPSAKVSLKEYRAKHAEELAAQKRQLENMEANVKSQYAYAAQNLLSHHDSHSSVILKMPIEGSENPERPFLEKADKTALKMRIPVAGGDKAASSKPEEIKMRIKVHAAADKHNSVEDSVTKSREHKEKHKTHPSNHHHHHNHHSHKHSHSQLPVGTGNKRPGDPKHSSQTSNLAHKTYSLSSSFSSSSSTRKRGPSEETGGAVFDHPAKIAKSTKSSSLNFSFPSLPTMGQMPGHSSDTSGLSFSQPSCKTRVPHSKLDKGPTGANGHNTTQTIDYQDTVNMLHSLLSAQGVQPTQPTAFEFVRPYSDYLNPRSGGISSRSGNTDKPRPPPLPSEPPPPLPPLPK
assay.endpoint: Selectivity high ATP CDK9 over high ATP CDK2: IC50 (high ATP CDK2)/IC50 (high ATP CDK9)

P: CS(=N)(=O)Cc1cc2cc(c1)OCCCCNc1cc(ccc1F)-c1nc(ncc1F)N2 (racemic) [Example 2]
Q: CS(=N)(=O)Cc1cc2nc(c1)OCCCCNc1cc(ccc1F)-c1cc(ncc1F)N2 (racemic)
R: CS(=N)(=O)Cc1cc2cc(c1)OCCCCNc1cc(ccc1F)-c1nc(ncc1F)N2 (single isomer, unassigned) [Example 9]
Arrange by Selectivity high ATP CDK9 over high ATP CDK2: IC50 (high ATP CDK2)/IC50 (high ATP CDK9), high to low. Response field: labels, in requested order.
P, R, Q
